Biological target: HCV polymerase (NS5B) type 1a (Hepatitis C virus genotype 1a, UniProt P26664)
Construct: made in house; host or cells: Escherichia coli (by the 'similar method' of the 1b enzyme)
Assay: Assay of enzyme (HCV polymerase) inhibitory activity, type 1a enzyme
Format: biochemical, HCV type 1a (cloned from the blood of patients)
Conditions: HCV polymerase inhibitory activity (IC50), 1a, type 1a enzyme 1.5 μg/ml, 25° C., 60 min
Listing of recorded IC50 by entry.

Sample records with IC50:
molecule | IC50
CC(C)c1ccc(CNC(=O)[C@H]2CN(C(=O)NCc3ccccc3)CCN2S(=O)(=O)c2ccc(C(F)(F)F)cc2)cc1 [Example 243] | > 1 µM
CCCc1ccc(CNC(=O)[C@H]2CN(c3cnc(CN(C)C)cn3)CCN2S(=O)(=O)c2ccc(CC)cc2)cc1 [Example 538] | < 0.1 µM
CC(C)c1ccc(CNC(=O)[C@H]2CN(C(=O)Cn3nnc(CC(=O)O)n3)CCN2S(=O)(=O)c2ccc(C(F)(F)F)cc2)cc1 [Example 310] | 0.1 to 1 µM

Prompt line: For the record CCC(F)(F)c1ccc(CNC(=O)[C@H]2CN(C(=O)Cc3ccncc3)CCN2S(=O)(=O)c2ccc(OC(F)(F)F)cc2)cc1 [Example 508] , what value of IC50 is listed for HCV polymerase (NS5B) type 1a (Hepatitis C virus genotype 1a, UniProt P26664)?
Response line: < 0.1 µM

Prompt line: Query the reported IC50 for HCV polymerase (NS5B) type 1a (Hepatitis C virus genotype 1a, UniProt P26664); item: CCC(F)(F)c1ccc(CNC(=O)[C@H]2CN(C(=O)Nc3cncs3)CCN2S(=O)(=O)c2ccc(OC(F)(F)F)cc2)cc1 [Example 607]
Response line: 0.1 to 1 µM

Prompt line: Query for HCV polymerase (NS5B) type 1a (Hepatitis C virus genotype 1a, UniProt P26664): what IC50 does the record show for COC(=O)c1ccc(CNC(=O)C2CN(C(C)=O)CCN2S(=O)(=O)c2ccc(C(C)C)cc2)cc1 (stereo not shown) [Example 76] ?
Response line: > 1 µM

---

The entries below come with measured IC50 values attached.
Biological target: HCV polymerase (NS5B) type 1b (Hepatitis C virus genotype 1b)
Construct: a region encoding NS5B (J Virol 1991 March, 65(3), 1105-13, 544 amino acids after deletion of 47 amino acids on the C-terminal); 6xHis (C); made in house; host or cells: Escherichia coli
Experiment: Assay of enzyme (HCV polymerase) inhibitory activity, type 1b enzyme
Assay type: biochemical, HCV BK strain (type 1b)
Conditions: HCV polymerase inhibitory activity (IC50), 1b, type 1b enzyme 0.5 μg/ml, 25° C., 60 min

Solved entries:
molecule | IC50
CC(C)(C)c1ccc(CNC(=O)[C@H]2CN(c3cnc(CO)c(N)n3)CCN2S(=O)(=O)c2ccc(OC(F)(F)F)cc2)cc1 | < 100 nM
COC(=O)c1ccc(S(=O)(=O)N2CCN(C(C)=O)CC2C(=O)NCc2ccc(C(F)(F)F)cc2)cc1 (stereo not shown) | > 1000 nM
CC(C)c1ccc(CNC(=O)[C@H]2CN(c3nc4ccccc4s3)CCN2S(=O)(=O)c2ccc(C(F)(F)F)cc2)cc1 | 100 to 1000 nM

Prompt line: Could you tell me which IC50 is on file for `CCOc1ccc(CNC(=O)[C@H]2CN(c3nc(C)c(C(=O)O)s3)CCN2S(=O)(=O)c2ccc(OC(F)(F)F)cc2)cc1` ?
Response line: < 100 nM

---

Molecular target: HCV polymerase (NS5B) type 1a (Hepatitis C virus genotype 1a)
Construct: made in house; host or cells: Escherichia coli (by the 'similar method' of the 1b enzyme)
Assay: Assay of enzyme (HCV polymerase) inhibitory activity, type 1a enzyme
Assay type: biochemical, HCV type 1a (cloned from the blood of patients)
Conditions: HCV polymerase inhibitory activity (IC50), 1a, type 1a enzyme 1.5 μg/ml, 25° C., 60 min
Protocol: The evaluation of the HCV polymerase inhibitory activity of the compound of the present invention is explained in the following. This polymerase is an enzyme coded for by the non-structural protein region called NS5B on the genome RNA of HCV. i) Preparation of Enzyme (HCV Polymerase) […] The HCV polymerase inhibitory activity (IC50) of the compound of the present invention was calculated from the values of radioactivity of the enzyme reaction with and without the test substance. […]
Counter-ions that a name gives are not always drawn.
Measured IC50, listed per entry for reference.

Known IC50 results, listed for orientation:
compound | test result
Cc1nc(N2CCN(S(=O)(=O)c3ccc(OC(F)(F)F)cc3)[C@@H](C(=O)NCc3ccc(N4CCCC4)cc3)C2)sc1C(=O)O [Example 416] | 100 to 1000 nM
CCC(F)(F)c1ccc(CNC(=O)[C@H]2CN(c3nc(C)ns3)CCN2S(=O)(=O)c2ccc(OC(F)(F)F)cc2)cc1 [Example 576] | < 100 nM

Let us move to another entry and its IC50.
Prompt line: So what IC50 did CC(C)c1ccc(CNC(=O)[C@H]2CN(C(=O)Nc3ccnc(C(=O)O)c3)CCN2S(=O)(=O)c2ccc(C(F)(F)F)cc2)cc1 [Example 314, hydrochloride] get with HCV polymerase (NS5B) type 1a (Hepatitis C virus genotype 1a)?
Response line: 100 to 1000 nM

---

Reported pIC50 values are given for each entry in this list.
Molecular target: HCV polymerase (NS5B) type 1b (Hepatitis C virus genotype 1b, UniProt P26663)
Construct: a region encoding NS5B (J Virol 1991 March, 65(3), 1105-13, 544 amino acids after deletion of 47 amino acids on the C-terminal); 6xHis (C); made in house; host or cells: Escherichia coli
Assay: Assay of enzyme (HCV polymerase) inhibitory activity, type 1b enzyme
Format: biochemical, HCV BK strain (type 1b)
Conditions: HCV polymerase inhibitory activity IC50, 1b, type 1b enzyme
pIC50: −log10 of the molar value.

line notation | pIC50
CCC(F)(F)c1ccc(CNC(=O)[C@H]2CN(C(=O)N3CC(C(=O)O)C3)CCN2S(=O)(=O)c2ccc(OC(F)(F)F)cc2)cc1 | < 6.00
CCCc1ccc(CNC(=O)[C@H]2CN(c3nc(C)c(S(N)(=O)=O)s3)CCN2S(=O)(=O)c2ccc(OC(F)(F)F)cc2)cc1 | > 7.00
CCCc1ccc(CNC(=O)[C@H]2CN(c3nc4ncncc4s3)CCN2S(=O)(=O)c2ccc(OC(F)(F)F)cc2)cc1 | > 7.00
Nc1ncc2sc(N3CCN(S(=O)(=O)c4ccc(OC(F)(F)F)cc4)[C@@H](C(=O)NCc4ccc(OC(F)(F)F)cc4)C3)nc2n1 | > 7.00
O=C(NCc1ccc(OC(F)(F)F)cc1)[C@H]1CN(c2nc3cn[nH]c(=O)c3s2)CCN1S(=O)(=O)c1ccc(F)cc1 | > 7.00

Switching to the query record.
Prompt line: For `CC(C)(O)c1nc(N)c2sc(N3CCN(S(=O)(=O)c4ccc(OC(F)(F)F)cc4)[C@@H](C(=O)NCc4ccc(OC(F)(F)F)cc4)C3)nc2n1` , what is its reported pIC50?
Response line: > 7.00

---

Below: a set of entries, each annotated with reported IC50.
Molecular target: HCV polymerase (NS5B) type 1a (Hepatitis C virus genotype 1a)
Construct: made in house; host or cells: Escherichia coli (by the 'similar method' of the 1b enzyme)
Assay: Assay of enzyme (HCV polymerase) inhibitory activity, type 1a enzyme
Assay type: biochemical, HCV type 1a (cloned from the blood of patients)
Conditions: HCV polymerase inhibitory activity IC50, 1a, type 1a enzyme

Some solved cases for reference:
line notation | result type | test result
O=C(NCc1ccc(OC(F)(F)C(F)F)cc1)[C@H]1CN(c2nc3cn[nH]c(=O)c3s2)CCN1S(=O)(=O)c1ccc(OC(F)(F)F)cc1 | IC50 | < 100 nM
O=C(NCc1ccc(OC(F)(F)F)cc1)[C@H]1CN(c2nn3c(C(F)(F)F)cc(=O)nc3s2)CCN1S(=O)(=O)c1ccc(OC(F)(F)F)cc1 | IC50 | < 100 nM

API: the following record is the query input.
Prompt line: Bench note: what IC50 did `COC(F)(F)c1ccc(CNC(=O)[C@H]2CN(c3nc4cn[nH]c(=O)c4s3)CCN2S(=O)(=O)c2ccc(OC(F)(F)F)cc2)cc1` show?
Response line: 100 to 1000 nM

---

Biological target: HCV polymerase (NS5B) type 1b (Hepatitis C virus genotype 1b, UniProt P26663)
Construct: a region encoding NS5B (J Virol 1991 March, 65(3), 1105-13, 544 amino acids after deletion of 47 amino acids on the C-terminal); 6xHis (C); made in house; host or cells: Escherichia coli
Experiment: Assay of enzyme (HCV polymerase) inhibitory activity, type 1b enzyme
Type: biochemical, HCV BK strain (type 1b)
Details: HCV polymerase inhibitory activity (IC50), 1b, type 1b enzyme 0.5 μg/ml, 25° C., 60 min
result type: IC50

Below, 4 molecules whose answers are already recorded.
molecule | IC50
Cc1nc(N2CCN(S(=O)(=O)c3ccc(OC(F)(F)F)cc3)[C@@H](C(=O)NCc3ccc(C(C)C)cc3)C2)sc1C(=O)NCCC(=O)OC(C)(C)C [Example 359] | < 100 nM
CC(=O)N1CCN(S(=O)(=O)c2ccc(OC(F)(F)F)cc2)[C@@H](C(=O)NCC2CCCCC2)C1 [Example 643] | > 1000 nM
CC(=O)N1CCN(S(=O)(=O)c2ccc(OC(F)(F)F)cc2)[C@@H](C(=O)NCc2ccc(-c3ccccn3)s2)C1 [Example 598] | 100 to 1000 nM
CC(C)c1ccc(CNC(=O)[C@H]2CN(C3=NCCS3)CCN2S(=O)(=O)c2ccc(C(F)(F)F)cc2)cc1 [Example 179] | 100 to 1000 nM

Continue with the next molecule.
Prompt line: Value wanted: IC50 (HCV polymerase (NS5B) type 1b (Hepatitis C virus genotype 1b, UniProt P26663)) of entry CCCc1ccc(CNC(=O)[C@H]2CN(c3cnc(C(=O)O)c(C)n3)CCN2S(=O)(=O)c2ccc(OC(F)(F)F)cc2)cc1 [Example 449]
Response line: < 100 nM
